Test system: bed bugs, Cimex lectularius
Assay Name: Bed bug repellency bioassay, glass tube olfactometer arena
Format: in vivo
Condition Details: Cimex lectularius, observation period T3, gauze, 50 uL, 5% w/v in hexane, read-out: % Repellency T3 (average of 3 repetitions)
Outcome Measure: pest or weed control at 5 % strength (%)

Compound | Outcome Measure | Measurement
C=COC(=O)CC [Compound 031, Vinyl propionate] | pest or weed control at 5 % strength | -67
CCCC(=O)CC | pest or weed control at 5 % strength | -36
CCC(=O)OCC=O [Compound 008, 2-oxoethyl propionate] | pest or weed control at 5 % strength | 17
CCC(=O)CC | pest or weed control at 5 % strength | 43
CCC(=O)CC(=O)OC [Compound 034, Methyl 3-oxovalerate] | pest or weed control at 5 % strength | -94

----------
Below, each entry is listed alongside its reported pest or weed control at 1 %.
System: bed bugs, Cimex lectularius
Assay Name: Bed bug repellency bioassay, glass tube olfactometer arena
Assay type: in vivo
Condition Details: Cimex lectularius, observation period T1, gauze, 10 uL, 1% v/v in hexane, read-out: % Repellency T1 (average of 3 repetitions)

Molecule | pest or weed control at 1 %, %
CCC(=O)/C=C/CO [Compound 006, (E)-6-hydroxyhex-4-en-3-one] | -62
C=CCOC(=O)CC [Compound 017, allyl propionate] | -20
CCCCCCC(=O)CC | -11
CCOC(=O)/C=C/C(=O)CC [Compound 068, (E)-ethyl 4-oxohex-2-enoate] | 30
